All values here come from the supplement of paper PMC11451515.

system: SEM cells; experiment: cell viability relative to DMSO control; higher = less cytotoxic; conditions: HPLM + 10% dialyzed FBS; 48 h; 0.19 µM
endpoint-name: cell viability (%)

[[record]]
molecule = "CCNC(=O)Nc1ccc(-c2nc3c(c(N4CCOC[C@@H]4C)n2)CCN(C2COC2)C3)cc1"
endpoint_name = "cell viability"
unit_abbrev = "%"
numeric_value = 87.7

[[record]]
molecule = "CCOc1cc(/C=C2/C(=O)N(c3ccccc3)N=C2C)cc(Cl)c1OCC(=O)OC"
endpoint_name = "cell viability"
unit_abbrev = "%"
numeric_value = 90

[[record]]
molecule = "FC(F)(F)C1=CC=C2C(SCCCCCO\\C3=C\\O\\C(CN4CCOCC4)=C/C3=O)=CC=NC2=C1"
endpoint_name = "cell viability"
unit_abbrev = "%"
numeric_value = 115

[[record]]
molecule = "O=C(NCCCNc1nc(Nc2cccc(NC(=O)N3CCCC3)c2)ncc1I)c1cccs1"
endpoint_name = "cell viability"
unit_abbrev = "%"
numeric_value = 60.8

[[record]]
molecule = "Cc1cc(SCc2sc(-c3ccc(C(F)(F)F)cc3)nc2C)ccc1OCC(=O)O"
endpoint_name = "cell viability"
unit_abbrev = "%"
numeric_value = 109

[[record]]
molecule = "COc1ccc2c(OCc3nnc4ccc(-c5ccccc5)nn34)ccnc2c1"
endpoint_name = "cell viability"
unit_abbrev = "%"
numeric_value = 92.9

[[record]]
molecule = "CNC1CCCN(c2c(F)cc3c(=O)c(C(=O)O)cn(C4CC4)c3c2OC)C1 (stereo not given)"
endpoint_name = "cell viability"
unit_abbrev = "%"
numeric_value = 125

[[record]]
molecule = "CC[C@H](NC(C)C)[C@H](O)c1ccc(O)c2[nH]c(=O)ccc12"
endpoint_name = "cell viability"
unit_abbrev = "%"
numeric_value = 100

[[record]]
molecule = "C[C@H]1C[C@H]2[C@@H]3CCC4=CC(=O)C=C[C@]4(C)[C@H]3C(=O)C[C@]2(C)[C@@]1(O)C(=O)CO"
endpoint_name = "cell viability"
unit_abbrev = "%"
numeric_value = 99.8

[[record]]
molecule = "CC(=O)OCC(=O)[C@@]12OC(C)(C)O[C@@H]1C[C@H]3[C@@H]4C[C@H](F)C/5=C/C(=O)/C=C\\[C@]5(C)[C@@]4(F)[C@@H](O)C[C@]23C"
endpoint_name = "cell viability"
unit_abbrev = "%"
numeric_value = 78.5

[[record]]
molecule = "CN(CCOc1ccc(NS(C)(=O)=O)cc1)CCc1ccc(NS(C)(=O)=O)cc1"
endpoint_name = "cell viability"
unit_abbrev = "%"
numeric_value = 120

[[record]]
molecule = "C/C(=C\\c1csc(C)n1)[C@@H]1C[C@@H]2O[C@]2(C)CCC[C@H](C)[C@H](O)[C@@H](C)C(=O)C(C)(C)[C@@H](O)CC(=O)O1"
endpoint_name = "cell viability"
unit_abbrev = "%"
numeric_value = 22

[[record]]
molecule = "CO[C@@H]1[C@@H](OC(N)=O)[C@@H](O)[C@H](OC2=CC=C3\\C(=C(NC(=O)C4=CC=C([O-])C(=C4)CC=C(C)C)/C(=O)OC3=C2C)O)OC1(C)C"
endpoint_name = "cell viability"
unit_abbrev = "%"
numeric_value = 116

[[record]]
molecule = "Cn1cc(-c2cnn3c(N)c(Br)c([C@@H]4CCCNC4)nc23)cn1"
endpoint_name = "cell viability"
unit_abbrev = "%"
numeric_value = 93.6

[[record]]
molecule = "CC(Cc1ccc(O)c(O)c1)(NN)C(=O)O (stereo not given)"
endpoint_name = "cell viability"
unit_abbrev = "%"
numeric_value = 131

[[record]]
molecule = "COCCCOc1ccnc(C[S+]([O-])c2nc3ccccc3[nH]2)c1C (stereo not given)"
endpoint_name = "cell viability"
unit_abbrev = "%"
numeric_value = 113

[[record]]
molecule = "O=C(O)c1ccc(-c2c[nH]c3ncc(-c4ccccc4)cc23)cc1C1CCCC1"
endpoint_name = "cell viability"
unit_abbrev = "%"
numeric_value = 125

[[record]]
molecule = "COc1cc(Nc2ncc(F)c(Nc3ccc4c(n3)N(COP(=O)(O)O)C(=O)C(C)(C)O4)n2)cc(OC)c1OC"
endpoint_name = "cell viability"
unit_abbrev = "%"
numeric_value = 55.2

[[record]]
molecule = "NC(=O)c1ccc(-c2nc(-c3ccc4c(c3)OCO4)c(-c3ccccn3)[nH]2)cc1"
endpoint_name = "cell viability"
unit_abbrev = "%"
numeric_value = 121

[[record]]
molecule = "CC1=CC=C(C=C1)N(C\\C2=N\\CCN2)C3=CC=CC(=C3)O"
endpoint_name = "cell viability"
unit_abbrev = "%"
numeric_value = 126

[[record]]
molecule = "CN1C2=CC(=O)/C(=N/NC(N)=O)C=C2CC1S(=O)(=O)[O-].[Na+] (stereo not given)"
endpoint_name = "cell viability"
unit_abbrev = "%"
numeric_value = 110

[[record]]
molecule = "Cc1cccc(N(C)C(=S)Oc2ccc3ccccc3c2)c1"
endpoint_name = "cell viability"
unit_abbrev = "%"
numeric_value = 104

[[record]]
molecule = "O=C(Nc1ccc([N+](=O)[O-])cc1Cl)c1cc(Cl)ccc1O"
endpoint_name = "cell viability"
unit_abbrev = "%"
numeric_value = 97.6

[[record]]
molecule = "CC(C[N+](C)(C)C)OC(N)=O (stereo not given)"
endpoint_name = "cell viability"
unit_abbrev = "%"
numeric_value = 106

[[record]]
molecule = "CN[C@H]1[C@H](O[C@@H]2[C@H](O[C@@H]3[C@@H](O)[C@@H](O)[C@@H](NC(=N)N)[C@@H](O)[C@H]3NC(=N)N)O[C@H](C)[C@@]2(O)C=O)O[C@@H](CO)[C@@H](O)[C@H]1O"
endpoint_name = "cell viability"
unit_abbrev = "%"
numeric_value = 82.2

